experimentalSystem: oxoeicosanoid receptor 1 (OXER1) (Homo sapiens)
Sequence (Q8TDS5 whole entry): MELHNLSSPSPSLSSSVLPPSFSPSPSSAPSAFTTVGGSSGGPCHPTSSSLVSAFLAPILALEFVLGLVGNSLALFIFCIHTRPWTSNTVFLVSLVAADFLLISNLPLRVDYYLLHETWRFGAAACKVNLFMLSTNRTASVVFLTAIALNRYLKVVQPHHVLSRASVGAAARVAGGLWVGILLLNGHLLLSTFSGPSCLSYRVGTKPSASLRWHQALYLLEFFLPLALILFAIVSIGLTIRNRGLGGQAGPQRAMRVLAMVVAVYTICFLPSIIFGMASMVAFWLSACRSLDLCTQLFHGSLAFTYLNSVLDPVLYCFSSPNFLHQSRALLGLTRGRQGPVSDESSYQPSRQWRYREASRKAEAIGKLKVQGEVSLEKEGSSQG
experimentDescription: inhibition of forskolin-stimulated cAMP in CHO-K1 cells stably expressing human OXER1 (agonist); also displaces [3H]testosterone from DU-145 membranes
pIC50: −log10 of the molar value.
readoutType: pIC50

| recordSmiles | readoutType | reportedValue |
| --- | --- | --- |
| CCCCC/C=C\C/C=C\C/C=C\C=C\C(=O)CCCC(=O)O | pIC50 | ~8.70 |
